- assay.summary: Kinetic stability: exchange reaction with Zn2+ in acetate buffer, monitored by relaxivity
- Type: physicochemical
- condition.details: acetate buffer with Zn2+ challenge, pH 5.6, pH 5.6, [Zn] 20 mM, acetate buffer 10 mM, 25° C., chelate approx. 0.5 mM; read-out: Dissociation Half life t1/2
- Protocol: The kinetic stability of manganous chelates was characterized by the rates of exchange reaction with Zn^2+, in acetate buffer (10 mM) set to various pH. The increase of free manganous ions was monitored using a Bruker Minispec PC 120b-NA 770, at 20 MHz and 25° C. The total ionic strength was adjusted to 0.5M with KCl. […] The change in concentration of chelated manganese, upon challenge with zinc ions, was monitored spectroscopically. […]
endpoint.label: half-life at 0.5 mM
Write the quantity with the unit trailing the number.

Qu. Fill in: half-life at 0.5 mM of O=C1CN2CCNCCN(CC(=O)[O][Mn][O]1)Cc1cccc(n1)C2 [Compound disclosed in US5334371, reference compound] is ___
Ans. 23 min

# ---- query molecule ----
Qu. Fill in: half-life at 0.5 mM of CN1CCN2CC(=O)[O][Mn][O]C(=O)CN(CC1)Cc1cccc(n1)C2 is ___
Ans. 77 min

Just for reference, patent US9486544B2 is where these values come from.
